Listing of recorded pIC50 by entry.
System: HCT116p53−/− (human colorectal cancer, mutant p53)
Assay: cytotoxic MTS test, HCT116p53
Format: cell-based
Settings: HCT116p53 cells
pIC50: −log10 of the molar value.

In: Which pIC50 value belongs to "COc1ncnc2c1c1ccncc1n2[C@@H]1O[C@H](CO)[C@@H](O)[C@H]1O" ?
Out: 5.00 to 6.05

In: Any idea what its pIC50 is? The compound is "OC[C@H]1O[C@@H](n2c3cccnc3c3c(-c4ccco4)ncnc32)[C@H](O)[C@@H]1O"
Out: < 4.30

In: Any idea what pIC50 was measured for "Nc1ncnc2c1c1ccncc1n2[C@@H]1O[C@H](CO)[C@@H](O)[C@H]1O" ?
Out: 6.05 to 6.70

In: Dear colleague, I am looking for the recorded pIC50 of the following compound: "CSc1ncnc2c1c1ncccc1n2[C@@H]1O[C@H](CO)[C@@H](O)[C@H]1O"
Out: < 4.30

In: Which value of pIC50 has been reported for "OC[C@H]1O[C@@H](n2c3cnccc3c3c(-c4ccoc4)ncnc32)[C@H](O)[C@@H]1O" in the records?
Out: < 4.30

In: Which pIC50 is reported for this compound? "Cc1ncnc2c1c1ccncc1n2[C@@H]1O[C@H](CO)[C@@H](O)[C@H]1O"
Out: 5.00 to 6.05

In: Any idea what pIC50 was measured for "OC[C@H]1O[C@@H](n2c3cnccc3c3c(-c4ccco4)ncnc32)[C@H](O)[C@@H]1O" ?
Out: < 4.30

In: Recorded pIC50 for "OC[C@H]1O[C@@H](n2c3cccnc3c3c(-c4ccsc4)ncnc32)[C@H](O)[C@@H]1O" , please?
Out: < 4.30

In: Return reported pIC50; argument: "OC[C@H]1O[C@@H](n2c3cnccc3c3c(-c4ccsc4)ncnc32)[C@H](O)[C@@H]1O"
Out: < 4.30

In: Would you mind telling me what pIC50 value was observed for "CSc1ncnc2c1c1ccncc1n2[C@@H]1O[C@H](CO)[C@@H](O)[C@H]1O" ?
Out: 6.05 to 6.70
